Molecular target: T1, MtrA (UniProt F2R521 1-225)
T1 sequence: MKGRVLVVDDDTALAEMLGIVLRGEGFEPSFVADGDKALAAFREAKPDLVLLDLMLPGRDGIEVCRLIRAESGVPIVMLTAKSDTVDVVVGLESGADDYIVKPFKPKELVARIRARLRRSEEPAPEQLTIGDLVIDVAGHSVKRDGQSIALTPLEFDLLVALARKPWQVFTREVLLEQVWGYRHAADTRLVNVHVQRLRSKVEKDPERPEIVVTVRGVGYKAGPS
Test: EMSA
measurement kind: binding result

Sample SVEN1860 WT (dsDNA) DNA 1: GTTTCATCAGTGTTTGACCACCGGGTCACGCCCTGGTAACACCAGTCTGTGAGCCTGGT DNA 2: ACCAGGCTCACAGACTGGTGTTACCAGGGCGTGACCCGGTGGTCAAACACTGATGAAAC ; binding result observed: binds

According to the records, this binder nirB-WT (dsDNA) DNA 1: GGAGATCAGCGTTCCGTACGGGAAACAGTCGGGATGCCGCCGGGTAACACCGGCCGCGC DNA 2: GCGCGGCCGGTGTTACCCGGCGGCATCCCGACTGTTTCCCGTACGGAACGCTGATCTCC displays binding result of binds

Entry mtrA WT (SVEN2756 WT) (dsDNA) DNA 1: TACGGTGCAGGCCGACCACGGGGGCCCACGGGGGTGACATCCATGTCTGGCATCAACAC DNA 2: GTGTTGATGCCAGACATGGATGTCACCCCCGTGGGCCCCCGTGGTCGGCCTGCACCGTA , binding result reported as binds
